Taken from patent US11753373B2.

- Type: in vitro ADME
- measurement_setup: extraction ratio, compound at 1 uM, beagle dog liver microsomes 0.5 mg/mL
Examples of molecules with documented Liver Microsomal Stability (ER) Beagle dog follow.
quantity_name: Liver Microsomal Stability (ER) Beagle dog

{"columns": ["molecule", "recorded_number"],
 "data": [
  ["CC1(C)[C@@H]2[C@@H](C(=O)N[C@H](C#N)C[C@@H]3CCNC3=O)N(C(=O)[C@@H](NC(=O)C(F)F)C3CC3)C[C@@H]21 [Compound D-2-d]", 0.05],
  ["COc1cccc2[nH]c(C(=O)N[C@@H](CC(C)C)C(=O)N[C@H](C=O)C[C@@H]3CCNC3=O)cc12 [Compound A-5-a]", 0.05],
  ["CC(C)C[C@H](NC(=O)C(C)C)C(=O)N1C[C@H]2[C@@H]([C@H]1C(=O)N[C@H](C#N)C[C@@H]1CCNC1=O)C2(C)C [Compound H-1-e]", 0.05]
]}

---

- measurement_setup: mouse oral PK, female Balb/c, 40 mg/kg single dose, plasma
Sorting guide: entries reporting Tmax beneath 1 h go in the Fulfilled pile, the rest go in the Not fulfilled pile.

{"columns": ["molecular_string", "assigned_category"],
 "data": [
  ["CC(C)(C)[C@H](NC(=O)C(F)(F)F)C(=O)N1C[C@H]2[C@@H]([C@H]1C(=O)N[C@H](C#N)C[C@@H]1CCCNC1=O)C2(C)C", "Fulfilled"],
  ["CC(C)C[C@H](NC(=O)c1cc2ccccc2[nH]1)C(=O)N1C[C@H]2[C@@H]([C@H]1C(=O)N[C@H](C#N)C(C)(C)C)C2(C)C", "Not fulfilled"],
  ["Cc1cccc2[nH]c(C(=O)N[C@@H](CC(C)C)C(=O)N[C@@H](C[C@@H]3CCNC3=O)C(=O)CO)cc12", "Not fulfilled"],
  ["CC(C)(C)[C@H](NC(=O)C(F)(F)F)C(=O)N1C[C@H]2[C@@H]([C@H]1C(=O)N[C@@H](C[C@@H]1CCNC1=O)C(=O)CO)C2(C)C", "Fulfilled"],
  ["CC(C)C[C@H](NC(=O)C(F)F)C(=O)N1C[C@H]2[C@@H]([C@H]1C(=O)N[C@H](C#N)C[C@@H]1CCNC1=O)C2(C)C", "Fulfilled"],
  ["CC(C)C[C@H](CC(=O)[C@@H](NC(=O)OCc1ccccc1)[C@@H](C)OC(C)(C)C)C(=O)N[C@H](C=O)C[C@@H]1CCNC1=O", "Not fulfilled"]
]}

---

- Format: in vitro ADME
- measurement_setup: extraction ratio, compound at 1 uM, monkey liver microsomes 0.5 mg/mL
Label rule, in plain words: Liver Microsomal Stability (ER) Monkey of 0.4 and up is yes (1), under 0.4 is no (0).

{"columns": ["molecular_string", "assigned_category"],
 "data": [
  ["CC(C)C[C@H](NC(=O)c1cc2c(F)cccc2[nH]1)C(=O)N[C@H](C#N)C[C@@H]1CCNC1=O", "no (0)"],
  ["C=CC(=O)N[C@H](C[C@@H]1CCNC1=O)NC(=O)[C@@H]1[C@@H]2[C@H](CN1C(=O)[C@@H](NC(=O)C(F)(F)F)C(C)(C)C)C2(C)C", "no (0)"],
  ["CC(C)[C@@H](C#N)NC(=O)[C@@H]1[C@@H]2[C@H](CN1C(=O)[C@@H](NC(=O)C(F)(F)F)C1CC1)C2(C)C", "no (0)"],
  ["CC(C)C[C@H](NC(=O)OCc1ccccc1)C(=O)N[C@H](C#N)C[C@@H]1CCNC1=O", "no (0)"],
  ["COc1cccc2[nH]c(C(=O)N[C@@H](CC(C)C)C(=O)N[C@@H](C[C@@H]3CCNC3=O)C(=O)CCl)cc12", "yes (1)"],
  ["C[C@@H](OC(C)(C)C)[C@H](NC(=O)OCc1ccccc1)C(=O)N[C@@H](CC1CCCCC1)C(=O)N[C@H](C=O)C[C@@H]1CCNC1=O", "yes (1)"],
  ["Cc1cccc2[nH]c(C(=O)N[C@@H](CC(C)C)C(=O)N[C@H](C=O)C[C@@H]3CCNC3=O)cc12", "no (0)"],
  ["CC(C)C[C@H](CC(=O)[C@@H](NC(=O)OCc1ccccc1)[C@@H](C)OC(C)(C)C)C(=O)N[C@H](C=O)C[C@@H]1CCNC1=O", "yes (1)"],
  ["CC(C)C[C@H](NC(=O)c1cc2ccccc2[nH]1)C(=O)N1C[C@H]2[C@@H]([C@H]1C(=O)N[C@H](C=O)C[C@@H]1CCNC1=O)C2(C)C", "no (0)"],
  ["CC(C)C[C@H](NC(=O)c1cc2ccccc2[nH]1)C(=O)N[C@@H](C[C@@H]1CCNC1=O)C(=O)CCl", "yes (1)"],
  ["C=CC(=O)N[C@H](C[C@@H]1CCNC1=O)NC(=O)[C@H](CC(C)C)NC(=O)OCc1ccccc1", "no (0)"],
  ["CC(C)C[C@H](NC(=O)c1cc2ccccc2[nH]1)C(=O)N1C[C@H]2[C@@H]([C@H]1C(=O)N[C@H](C#N)C[C@@H]1CCNC1=O)C2(C)C", "yes (1)"],
  ["COc1cccc2[nH]c(C(=O)N[C@@H](CC(C)C)C(=O)N[C@H](C#N)C[C@@H]3CCNC3=O)cc12", "yes (1)"],
  ["C=CC(=O)N[C@H](C[C@@H]1CCNC1=O)NC(=O)[C@H](CC1CCCCC1)NC(=O)OCc1ccccc1", "yes (1)"]
]}
